B1: SLC35F2 (parent)
chain: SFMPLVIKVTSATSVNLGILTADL

Variants of: B1
Test: protein stability index of a GFP-peptide fusion (GPS, HEK-293T) (PSI 1-6); higher = more stable;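 note: lentivirally expressed fusions sorted by FACS into six bins by GFP to DsRed ratio, PSI derived from sequencing read proportions per bin multiplied by bin number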
Conditions: c terminus: a fixed tail appended
OBSERVED PROPERTY: protein stability index

Example variants with recorded protein stability index:
SFMPLVIKVTTATSVNLGILTADL [S11T] :: 2.03
SFMPLVIKQTSATSVNLGILTADL [V9Q] :: 3.26
SFMPLVIKVTSATSVNLGILTIDL [A22I] :: 4
SFMPLVIKVTSATSVNLGDLTADL [I19D] :: 1.97
SFMPLVIKVTSATSVNLGSLTADL [I19S] :: 2.69

Please supply protein stability index for each of the following items, keeping them in order.
1. SFCPLVIKVTSATSVNLGILTADL [M3C]
2. SFMPLVIGVTSATSVNLGILTADL [K8G]
3. SFMPWVIKVTSATSVNLGILTADL [L5W]

1.59
2.94
2.75

Provide protein stability index values for the following items, in order.
1. SFMPLGIKVTSATSVNLGILTADL [V6G]
2. SFMPLVIKVYSATSVNLGILTADL [T10Y]
3. SRMPLVIKVTSATSVNLGILTADL [F2R]

3.03
2.64
2.01

Would you be so kind as to report protein stability index for each listed record?
1. SFMPLVIKVTSATSVNLGILTAVL [D23V]
2. SFTPLVIKVTSATSVNLGILTADL [M3T]

1. 3.83
2. 2.79

List the reported protein stability index of each variant below.
1. SFMPLVCKVTSATSVNLGILTADL [I7C]
2. SFMPGVIKVTSATSVNLGILTADL [L5G]
3. SFMPLVIKVTSATSVNLGILTADV [L24V]
4. SFMPLVIKVTSATSVNLQILTADL [G18Q]
5. SFMPLVIKVTSATSVNLGILTDDL [A22D]
6. SFMPLVIKVTSATSDNLGILTADL [V15D]
7. SLMPLVIKVTSATSVNLGILTADL [F2L]
8. SFMPMVIKVTSATSVNLGILTADL [L5M]

1. 2.11
2. 1.68
3. 2.43
4. 4.06
5. 2.67
6. 3.98
7. 2.42
8. 2.94

For every item in the list below, what is its measured protein stability index?
1. SFMPLVIKVTSATSVNLGIATADL [L20A]
2. SFMPLVIKVTSATSVNLWILTADL [G18W]
3. SFMPLVIKVTSATSVNLGILGADL [T21G]
4. SFMPLVIKVTSATSVNLGILTADC [L24C]
5. SFMPLVKKVTSATSVNLGILTADL [I7K]
6. SFMPKVIKVTSATSVNLGILTADL [L5K]
7. SFMPLVIKVTSATSVNLRILTADL [G18R]
8. SFMPLVIKVTSLTSVNLGILTADL [A12L]

1. 3.33
2. 3.32
3. 2.24
4. 3.76
5. 1.76
6. 1.88
7. 3.18
8. 3.32

Name the recorded protein stability index for SFMPLVIKVTSATSVNLLILTADL [G18L] .
3.54
